Reference for the values: the supplement of paper PMC7877785

Assignment: determine reported self-splicing fitness (ln) for the given sequences.
# assay-overview: self-splicing fitness, log relative to wild type (ln ratio); higher = more splicing; Tetrahymena group I intron in knt gene, E. coli kanamycin selection, DiMSum; sequences stand for … in CUCUCU…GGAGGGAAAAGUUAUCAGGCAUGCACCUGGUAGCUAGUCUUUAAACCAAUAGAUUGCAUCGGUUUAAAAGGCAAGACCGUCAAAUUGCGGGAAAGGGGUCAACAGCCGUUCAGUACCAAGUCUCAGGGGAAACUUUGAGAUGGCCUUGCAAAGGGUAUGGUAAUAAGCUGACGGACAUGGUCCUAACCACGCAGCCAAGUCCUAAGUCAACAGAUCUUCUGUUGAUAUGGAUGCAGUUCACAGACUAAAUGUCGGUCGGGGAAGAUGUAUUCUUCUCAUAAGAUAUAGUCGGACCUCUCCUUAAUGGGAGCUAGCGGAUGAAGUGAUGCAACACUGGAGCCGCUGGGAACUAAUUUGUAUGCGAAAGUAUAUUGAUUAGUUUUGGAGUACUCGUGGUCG;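 further: selection with 25 µg/mL kanamycin versus none on LB agar overnight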
# measurement-setup: 37 °C

I'd like to know its self-splicing fitness (ln). The sequence in question is CCCAAGCAAUAUUACGCAAU -1.16

Also check UACUAGCAAUAUUACGGUAA -1.01

Item: UAGGAGCAAUAUUACGUCCA -0.339

Try GCCAAGCAAUAUUACGGAAC next. -0.77

And what about the sequence CCCCAGCAAUAUUACGGCUA ? -2.34

What do we get for CGGUAGCAAUAUUACGUCUC ? -1.86

What about UUAGAGCAAUAUUACGAACU ? -1.92

And CAUUAGCAAUAUUACGGAUG ? -3.03

# repeat for AUGUAGCAAUAUUACGUCUG -2.83

Same question, CUGGAGCAAUAUUACGGUGG this time -1.93

Now consider UGGUAGCAAUAUUACGUCGC and answer again. -2.88

Okay, and UACGAGCAAUAUUACGUGUG ? -1.82

// next record UGUCAGCAAUAUUACGGUUA 0.239

Consider next the sequence GUAUAGCAAUAUUACGUCGA in the same way. -1.03

Further, for GAGAAGCAAUAUUACGACAG ? -3.09

Please do the same for CUGGAGCAAUAUUACGCAGG as well. -2.36

Please do the same for AUAAAGCAAUAUUACGUCCC as well. -0.0866

Another sequence to check: ACAUAGCAAUAUUACGGUUU -0.763

One more sequence: UCUAAGCAAUAUUACGGCGA -0.474

Also, AAGCAGCAAUAUUACGCUGG please. -1.72

Same lookup for UGCAAGCAAUAUUACGCUAA , please. 0.000151

Same question, UCAUAGCAAUAUUACGAGAG this time -2.44

// repeat for GGACAGCAAUAUUACGAGGA and report -1.85

Same question, UUCGAGCAAUAUUACGGCUA this time -0.029

Record: UACUAGCAAUAUUACGCCCG -1.04

And then ACAGAGCAAUAUUACGCUCC , what is it? -1.45

Can you check GUACAGCAAUAUUACGUAUC next? -1.35

Input AGGUAGCAAUAUUACGUAUU -1.45

Can you check AGAUAGCAAUAUUACGUUCC next? -1.48

Could you do the same for CAUUAGCAAUAUUACGGUAG , please? -0.027

What do we get for GUACAGCAAUAUUACGUCCA ? -1.23

Further, for ACACAGCAAUAUUACGUCUG ? -0.547

What do we get for ACUAAGCAAUAUUACGACAC ? -0.813

Similarly, GGAAAGCAAUAUUACGUAAC ? -1.42
